Experiment: Single dose clinical study: plasma Compound A pharmacokinetics
Format: in vivo, human
Conditions: human, plasma, po, 50 mg, plasma, healthy adults (Parts A,B), single oral 50 mg, fasted; read-out: AUC(0-72 h) GM
Readout Kind: AUC(0-t) (ng·h/mL)
Numbers only, in ng·h/mL.

*Q* Give a short answer stating reported AUC(0-t) for "COc1ncc(C)c(-c2ccc3c(c2)[nH]c(=O)c2cnn([C@H]4CCOC4)c23)c1C" .
*A* 6490

###

Assay: Multiple ascending dose study: plasma pharmacokinetics
Format: in vivo
Conditions: human, po, 400 mg, Day 14, 400 mg QD oral, Japanese, read-out: Cmax Median
Readout Kind: Cmax (ng/mL)
Numbers only, in ng/mL.

*Q* Complete the entry with Cmax for COc1ncc(C)c(-c2ccc3c(c2)[nH]c(=O)c2cnn([C@H]4CCOC4)c23)c1C [Compound A]
*A* 3250

###

Experiment: Single dose clinical study: plasma Compound A pharmacokinetics
Type: in vivo, human
Settings: human, plasma, po, 10 mg, plasma, healthy adults (Parts A,B), single oral 10 mg, fasted; read-out: AUC(0-72 h) GM
Readout Kind: AUC(0-t) (ng·h/mL)
Numbers only, in ng·h/mL.

*Q* Fill in AUC(0-t) for record "COc1ncc(C)c(-c2ccc3c(c2)[nH]c(=O)c2cnn([C@H]4CCOC4)c23)c1C"
*A* 1430

###

Experiment: Single dose clinical study: plasma Compound A pharmacokinetics
Assay type: in vivo, human
Settings: human, plasma, po, 100 mg, plasma, healthy elderly subjects (Part C), single oral 100 mg; read-out: t1/2 Mean (SD) (converted)
Readout Kind: half-life (h)
One number for each entry, in h.

*Q* Please report the measured half-life for "COc1ncc(C)c(-c2ccc3c(c2)[nH]c(=O)c2cnn([C@H]4CCOC4)c23)c1C"
*A* 38.1

###

Assay: Single dose clinical study: plasma Compound A pharmacokinetics
Format: in vivo, human
Conditions: human, plasma, oral, 25 mg, Japanese, 25 mg, without weight as covariate; read-out: AUC(O-inf) Geometric LS Means Test
Readout Kind: AUC (ng·h/mL)
Numbers only, in ng·h/mL.

*Q* Provide only the value of recorded AUC for "COc1ncc(C)c(-c2ccc3c(c2)[nH]c(=O)c2cnn([C@H]4CCOC4)c23)c1C"
*A* 4580

###

Experiment: Single dose clinical study Part B: CSF Compound A pharmacokinetics
Type: in vivo
Settings: human, CSF and plasma, po, 200 mg, healthy adults Part B, single oral 200 mg, fasted; from AUC (0-t) or AUC (0-30 h); read-out: CSF: plasma AUC ratio (expressed as %) GM (% CV)
Readout Kind: Kp
Answers are plain numbers.

*Q* Answer with reported Kp of COc1ncc(C)c(-c2ccc3c(c2)[nH]c(=O)c2cnn([C@H]4CCOC4)c23)c1C [Compound A]
*A* 0.0238

###

Test: Single dose clinical study: plasma Compound A pharmacokinetics
Format: in vivo, human
Conditions: human, plasma, po, 800 mg, plasma, healthy adults (Parts A,B), single oral 800 mg, fasted; read-out: tmax Median
Readout Kind: Tmax (h)
Give bare numbers, in h.

*Q* Supply reported Tmax belonging to this compound: COc1ncc(C)c(-c2ccc3c(c2)[nH]c(=O)c2cnn([C@H]4CCOC4)c23)c1C [Compound A]
*A* 3.55

###

Assay: Single dose clinical study: plasma Compound A pharmacokinetics
Assay type: in vivo, human
Conditions: human, plasma, po, 100 mg, plasma, Non-Japanese Subjects (Parts A,B), single oral 100 mg; read-out: Cmax GM (% CV)
Readout Kind: Cmax (ng/mL)
Numbers only, in ng/mL.

*Q* State, in one line, measured Cmax of "COc1ncc(C)c(-c2ccc3c(c2)[nH]c(=O)c2cnn([C@H]4CCOC4)c23)c1C"
*A* 373
